Quick reference: self-cleavage kobs at 640 uM GlcN6P of the listed items.
B1: glmS ribozyme (parent)
chain: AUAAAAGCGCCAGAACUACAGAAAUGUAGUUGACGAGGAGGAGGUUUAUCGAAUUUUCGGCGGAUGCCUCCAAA

# Variants of: B1
# Assay overview: self-cleavage kobs at 640 uM GlcN6P; higher = faster cleavage; RNA array
# Measurement setup: with glucosamine-6-phosphate
This sample holds only a part of the variants without activity.
Quick reminder: number only, in s⁻¹, skip the unit.

{"Residue string": "AUAAAAGCGCCAGAACUACAGAAAUGUACUUGACGAGGAGGAGGUUUAUCGAAUGUUCGGCGGAUGCCUCCAAA [G29C U55G]", "Quantity name": "self-cleavage kobs at 640 uM GlcN6P", "Measured number": 0.000107}
{"Residue string": "AUAAAAGCGCCAGAACUACAGAAAUGUAAUUGACGAGGAGGAGGUUGAUCGAGUUUUCGGCGGAUGCCUCCAAA [G29A U47G A53G]", "Quantity name": "self-cleavage kobs at 640 uM GlcN6P", "Measured number": 0.000173}
{"Residue string": "AUAAAAGCGCCAGUACUACAGAAAUGUAGUUGACGAGGAGGAGGUUUAUCGAAUUUUCGGCGGAUGCCUCUAAA [A14U C71U]", "Quantity name": "self-cleavage kobs at 640 uM GlcN6P", "Measured number": 0.00138}
{"Residue string": "AUAAAAGCGCCUAAACUACAGAAAUGUAGUUGACGAGGAGGAGGUUUAUCGAAUUUUCGGCGGAUGCCUCCAAA [A12U G13A]", "Quantity name": "self-cleavage kobs at 640 uM GlcN6P", "Measured number": "8.57e-05"}
{"Residue string": "AUAAAAGCGCCAGAACUACAGAAAUGUAGUUGACGAGGAGGAGGUUAAUCGAAUUUUCGGCGGAUUCCUCCAAA [U47A G66U]", "Quantity name": "self-cleavage kobs at 640 uM GlcN6P", "Measured number": 0.00141}
{"Residue string": "AUAAAAGCGCCAGAACUACAGAAAUGUAGUUGACGAGGAGUAGGGUUAUCGAAUUUUCGGCGGAUGCCUCCAAA [G41U U45G]", "Quantity name": "self-cleavage kobs at 640 uM GlcN6P", "Measured number": 0.000129}
{"Residue string": "AUAAAAGCGCCAGAACUACAGAAAUGUAGUUGACGAAGAGAAGGUUUAUCGAAUUUUCGGCGGAUGCCUUCAAA [G37A G41A C70U]", "Quantity name": "self-cleavage kobs at 640 uM GlcN6P", "Measured number": 0.00119}
{"Residue string": "AUAAAAGCGCCAGCACUACAGAAAUGUAGUUGACGAGGAGGAGGUUUAUCGAAUUUUCGGCGGAUGCCUUCAAA [A14C C70U]", "Quantity name": "self-cleavage kobs at 640 uM GlcN6P", "Measured number": 0.000897}
{"Residue string": "AUAAAAGCGCCGGAACUACAGAAAUGUAGUUGACGAGGAGGAGGUUUAUCGAAUUUUGGGCGGAUGACUCCAAA [A12G C58G C67A]", "Quantity name": "self-cleavage kobs at 640 uM GlcN6P", "Measured number": 0.000136}
{"Residue string": "AUAAAAGCGCUAGAACUACAGAAAUGUACUUGACGAGGAGGAGGUUUAUCGAAUUUUCGGCGGAUGCCUCCAAA [C11U G29C]", "Quantity name": "self-cleavage kobs at 640 uM GlcN6P", "Measured number": "4.1e-05"}

Query: Would you mind telling me what self-cleavage kobs at 640 uM GlcN6P value was observed for AUAAAAGCGCCAGAACUACAGAAAUGUAGUUUACGAGGAGGAGGUUUAUCGAAUUUUCGGCGGAUGCUUCCAAA [G32U C68U] ?
Response: 2.88e-05

Query: Quick check: self-cleavage kobs at 640 uM GlcN6P of AUAAAAGCGCCGGAACUACAGAAAUGUAGUUGCCGAGGAGGAGGUUUAUAGAAUUUUCGGCGGAUGCGUCCAAA [A12G A33C C50A C68G] ?
Response: 0.000144

Query: Please report the recorded self-cleavage kobs at 640 uM GlcN6P for AUAAAAGCGCGAAAACUACAGAAAUGUAGUUGACGAGGAGGAGGUUUAUCGAAUUUUCGGCGGAUGCCUGCAAA [C11G G13A C70G] .
Response: 0.000406

Query: Fill in the blank: the reported self-cleavage kobs at 640 uM GlcN6P of AUAAAAGCGCCCGAACUACAGAAAUGUAGUUGACGAGGAGGGGGUUUAUCGAAUUUUCGGCGGAUGCCUCCAAA [A12C A42G] is ____.
Response: 0.00579

Query: Given the entry AUAAAAGCGCCAGACCUACAGAAAUGUAGUUGACGAGGAGGAGGUUUAUCGAAAUUUCGGCGGAUGCCUCCAAA [A15C U54A] , report its measured self-cleavage kobs at 640 uM GlcN6P.
Response: 0.0012

Query: What does the record list as self-cleavage kobs at 640 uM GlcN6P for AUAAAAGCGCCAGAACUACAGAAAUGUAGUUGACGAGGAGGAGGUUUAUGAAAUUUUCUGCGGAUGCCUGCAAA [C50G G51A G59U C70G] ?
Response: 0.000132
